- Tested on: SW-620
- procedure-text: NCI tumour cell line growth inhibition, 48 h
Active and inactive are the calls of the source. No stated cut-off is given here; in the data, active = GI50 up to about 1.1 µM and inactive = higher.
Choose one outcome from this list and give only that: active, inactive

## Input Hi team, can someone confirm the assay call for `O=C1O[C@@H](c2ccccc2)C[C@H]1CN1CCOCC1` ?
## Output inactive

## Input How about `C[C@H](N)C(=O)Nc1ccc(-c2nc3ccccc3s2)cc1Cl` ?
## Output inactive

## Input How about COC(=O)C1CC23C=CCN4CC(C2C)C2(c5ccccc5NC12)C43 (stereo unspecified) ?
## Output inactive

## Input How about c1ccc(SC23C4C5C6C4C2C6C53)nc1 (stereo unspecified) ?
## Output inactive

## Input How about `C/C(=N/NC(=S)Nc1cccc(Cl)c1)c1cccc(/C(C)=N\NC(=S)Nc2cccc(Cl)c2)n1` ?
## Output inactive

## Input How about CCC(=O)c1c(NOC2OC(COC(C)=O)C(OC(C)=O)C(OC(C)=O)C2OC(C)=O)nc(OC)n(C)c1=O (stereo unspecified) ?
## Output inactive

## Input How about Nc1ncnc2c1ncn2C1OC(CSCc2ccc(Cl)cc2)C(O)C1O (stereo unspecified) ?
## Output inactive

## Input How about `CCOC(=O)c1cc(-c2ccc(OC)cc2)c([N+](=O)[O-])[nH]1` ?
## Output inactive

## Input How about COC(=O)C1CCCCCCCCCCC12SCCCS2 (stereo unspecified) ?
## Output inactive

## Input How about CC(=O)OCC1=C(C)C[C@H]([C@@H](COC(C)=O)C2CCC3C4C[C@H]5O[C@]56CC=CC(=O)[C@]6(C)C4CC[C@@]32C)OC1=O (stereo partly specified) ?
## Output active

## Input How about `CN(C)C(=S)Nc1nnc(Nc2ccccc2)s1` ?
## Output inactive

###

- Tested on: SK-MEL-28
- procedure-text: NCI tumour cell line growth inhibition, 48 h
Activity calls are given as the source filed them. Cut-off read from the data, not from the text of the source: active = GI50 up to about 1.1 µM and inactive = higher.
experimental-readout: GI50

## Input Quick one: GI50 for `Nc1ccc2nc3n(c(=O)c2c1)CCCCC3` ?
## Output > 100 µM (inactive)

## Input How about `O=C1N[C@@H](O)[C@@H]2ON=C(c3ccccc3)[C@H]12` ?
## Output > 100 µM (inactive)

## Input How about `COc1cc(/C=c2/c3ccccc3n3c2cc(-c2ccccc2)[n+]3C)cc(OC)c1OC` ?
## Output 5.78 µM (inactive)

## Input How about O=c1ccn(C2OC(CN(O)CCC3C(CO)OC(n4ccc(=O)[nH]c4=O)C3O)C(O)C2O)c(=O)[nH]1 (stereo unspecified) ?
## Output > 100 µM (inactive)

## Input How about `COc1ccc(-n2c(=O)[nH]n(C(C)=O)c2=O)cc1` ?
## Output > 100 µM (inactive)

## Input How about `O=[N+]([O-])/C(Cl)=C(\NCCO)C(Cl)=C(Cl)Cl` ?
## Output > 85.7 µM (inactive)

## Input How about c1ccc(SC23C4C5C6C4C2C6C53)nc1 (stereo unspecified) ?
## Output > 100 µM (inactive)

## Input How about CC(=O)c1ccc(NC(=O)C(=O)C(C(=O)/C=C/c2ccccc2)C2OC(=O)c3ccccc32)cc1 (stereo unspecified) ?
## Output > 100 µM (inactive)

## Input How about CC1=CC(O)(c2ccc(-c3ccccc3Cl)cc2)OC1=O (stereo unspecified) ?
## Output > 100 µM (inactive)

## Input How about C1OC1CO[C@@H]1CO[C@H]2[C@@H]1OC[C@H]2OCC1CO1 (stereo partly specified) ?
## Output > 100 µM (inactive)

## Input How about `ClCCN1CCC2(CC1)SSC1(CCN(CCCl)CC1)S2` ?
## Output > 100 µM (inactive)

## Input How about CC(=O)Nc1nc(C)c(S(=O)(=O)NC(=O)NC2NC(=O)NC2=O)s1 (stereo unspecified) ?
## Output > 100 µM (inactive)

## Input How about COc1ccc2c(c1)CC[C@@H]1C2CC[C@]2(C)C(=O)N(CCN3CCCCC3)C(=O)CC12 (stereo partly specified) ?
## Output 34.8 µM (inactive)

## Input How about `COc1ccc2cc(C(=O)CCC(=O)O)ccc2c1` ?
## Output > 100 µM (inactive)

## Input How about CCOC(=O)C1(C(N)=O)C(=O)c2ccncc2C1=O (stereo unspecified) ?
## Output > 100 µM (inactive)

## Input How about `COc1ccc2nc3cc([N+](=O)[O-])ccc3c(Nc3ccc(S(=O)(=O)NC(C)=O)cc3)c2c1` ?
## Output > 100 µM (inactive)

## Input How about `COC(=O)[C@H]1C=C[C@@H](C)n2c(=O)c3ccccc3c(=O)n21` ?
## Output > 100 µM (inactive)

## Input How about CC(C)(C)OC(=O)CCC1NC(=O)[C@@H]2Cc3c([nH]c4ccccc34)C(C3CCCCC3)N2C1=O (stereo partly specified) ?
## Output 68.9 µM (inactive)

## Input How about `CN(CCCNC(=O)c1cn(C)c2c1ccc1ccccc12)CCCNC(=O)c1cn(C)c2c1ccc1ccccc12` ?
## Output 1.69 µM (inactive)

## Input How about `CCCCOc1ccc(NC(=N)Nc2ccc(Cl)cc2)cc1` ?
## Output 13.2 µM (inactive)

## Input How about `O=c1cccccc1O.O=c1cccccc1O.O=c1cccccc1O.[SiH4]` ?
## Output 55.1 µM (inactive)

###

- Tested on: TK-10
- procedure-text: NCI tumour cell line growth inhibition, 48 h
Calls of active or inactive are those of the source. Cut-off read from the data, not from the text of the source: active = GI50 up to about 1.1 µM and inactive = higher.
Choose one outcome from this list and give only that: active, inactive

## Input Hi team, can someone confirm the assay call for O=C(/C=C1/Nc2ccc([N+](=O)[O-])cc2NC1O)c1cccc([N+](=O)[O-])c1 (stereo unspecified) ?
## Output inactive

## Input How about `CC1=NN(C(=O)c2ccc(Cl)cc2)C(=O)/C1=C/c1c(O)cc(O)c2ccccc12` ?
## Output inactive

## Input How about CCCCCCC(O)C/C=C/CCCCCC/C(C(=O)OC)=C(/O)C(=O)OCC (stereo unspecified) ?
## Output inactive

## Input How about COC(=O)C(NC(=O)c1ccccc1)c1ccco1 (stereo unspecified) ?
## Output inactive

## Input How about `NC(=O)c1ccc2c(c1)S(=O)(=O)c1ccccc1C2=O` ?
## Output inactive

## Input How about `O=C(Oc1cccc(Cl)c1)c1cc2cc(CCl)ccc2oc1=O` ?
## Output inactive

## Input How about `O=C1OCC(CN2CCC(n3c(=O)[nH]c4ccccc43)CC2)=C1c1ccccc1` ?
## Output inactive

## Input How about `O=C(Nc1cnc(O)nc1O)C(Cl)Cl` ?
## Output inactive

## Input How about `NC(=O)N/N=C(\Cc1cc(=O)oc2cc(O)ccc12)C(=O)Nc1ccccc1C(N)=O` ?
## Output inactive

## Input How about `CC(=O)CC(=O)CCC(=O)Nc1cccc(C(F)(F)F)c1` ?
## Output inactive

## Input How about `COC(NC(=O)Nc1ccccc1C)(C(F)(F)F)C(F)(F)F` ?
## Output inactive

## Input How about `COc1ccc2c(c1)c(=O)c1c(NCCN(C)C)ccc3c(=O)n(CCN(C)C)c(=O)n2c31` ?
## Output active

## Input How about CC(=O)Oc1ccc2c(c1)CC[C@@H]1C2[C@@H](O[N+](=O)[O-])C[C@@]2(C)C1CC[C@@H]2O[N+](=O)[O-] (stereo partly specified) ?
## Output inactive

## Input How about `CCOC(=O)c1ccc(Nc2cnc3cc(C(F)(F)F)ccc3n2)cc1` ?
## Output inactive

## Input How about `CC1(C)C(C#N)=[N+]([O-])C(C)(C)N1O` ?
## Output inactive

## Input How about CCC1c2[nH]c3ccccc3c2C[C@H]2C(=O)NC(COC(C)(C)C)C(=O)N12 (stereo partly specified) ?
## Output inactive

## Input How about COc1ccc(C2C3=C(COC3=O)OC(C)(C)Oc3cc4c(cc32)OCO4)cc1OC (stereo unspecified) ?
## Output inactive

## Input How about O=C1C2C(C(=O)N1O)N(Cc1ccccc1)C(=O)N2Cc1ccccc1 (stereo unspecified) ?
## Output inactive

## Input How about C=C(Cl)C(Cl)(CBr)CCC(Br)C(C)(C)Br (stereo unspecified) ?
## Output inactive

## Input How about O=[N+]([O-])c1ccc2c(c1)C1=NN(c3ccccc3)C(c3ccccc3Br)C1CCC2 (stereo unspecified) ?
## Output inactive

## Input How about `O=C(c1ccccc1)c1ccc(C(c2c(O)c3ccccc3oc2=O)c2c(O)c3ccccc3oc2=O)cc1` ?
## Output inactive

###

- System: MDA-MB-231
- procedure-text: NCI tumour cell line growth inhibition, 48 h
The source made the active and inactive calls. Cut-off read from the data, not from the text of the source: active = GI50 up to about 1.1 µM and inactive = higher.
experimental-readout: GI50

## Input Quick one: GI50 for `ClCCN1CCC2(CC1)SSC1(CCN(CCCl)CC1)S2` ?
## Output 57.5 µM (inactive)

## Input How about O=NN(CCCl)C(=O)NCCCl [CARMUSTINE] ?
## Output 91 µM (inactive)

## Input How about O=C(NCCC1CN(C(=O)OCc2ccccc2)c2ccccc21)OCc1ccccc1 (stereo unspecified) ?
## Output > 100 µM (inactive)

## Input How about `CCC(/C=C/c1ccccc1)=N\Nc1ccc(Cl)c(Cl)c1` ?
## Output 17.8 µM (inactive)

## Input How about `O=C(O)CCc1ccc2c(c1)CC1(Cc3ccccc3C1)C2` ?
## Output > 100 µM (inactive)

## Input How about `O=c1[nH]c(C23CC4CC(CC(C4)C2)C3)cc2c1c(=O)oc1ccccc12` ?
## Output 3.4 µM (inactive)

## Input How about `N/N=C(/CC(O)(C(F)(F)F)C(F)(F)F)c1ccccc1` ?
## Output > 10 µM (inactive)

## Input How about OCC1OC(c2n[nH]c3c(O)ncnc23)C(O)C1O (stereo unspecified) ?
## Output 3.66 µM (inactive)

## Input How about `O=C([C@H](O)[C@@H](O)c1ccc(Br)cc1)C12CC3CC(CC(C3)C1)C2` ?
## Output 10.5 µM (inactive)

## Input How about COC(=O)C1CC23C=CCN4CC(C2C)C2(c5ccccc5NC12)C43 (stereo unspecified) ?
## Output > 100 µM (inactive)

## Input How about `COc1ccccc1-c1cc(=O)c2ccccc2n1C1CC1` ?
## Output 3.76 µM (inactive)
